- System: 786-0 renal
- runDescription: NCI tumour cell line growth inhibition, 48 h
readoutLabel: TGI

{"molecule": "Nc1ccc2c(c1)[O][Sn]([c]1ccccc1)([c]1ccccc1)[O]C2=O", "readoutLabel": "TGI", "valueMeasured": "7.95 µM"}
{"molecule": "CN(C)c1ccc(C(c2ccc(N(C)C)cc2)c2ccc([N+](=O)[O-])cc2)cc1", "readoutLabel": "TGI", "valueMeasured": "> 100 µM"}
{"molecule": "c1ccc2c(c1)SC1Sc3ccccc3[S+]21 (stereo not drawn)", "readoutLabel": "TGI", "valueMeasured": "> 62.4 µM"}
{"molecule": "COc1nc2c(c(=O)n1C)N[C@@H]1[C@@H](O)[C@H](O)CO[C@@H]1N2", "readoutLabel": "TGI", "valueMeasured": "> 100 µM"}
{"molecule": "c1ccc(N=NNNc2ccc(-c3nc4ccccc4[nH]3)cc2)cc1", "readoutLabel": "TGI", "valueMeasured": "> 100 µM"}
{"molecule": "Cc1nn(-c2ccccc2)c(C)c1/C=N/NC(=O)c1sc(=S)n(-c2ccccc2)c1N", "readoutLabel": "TGI", "valueMeasured": "> 100 µM"}
{"molecule": "CCOC(OC1=C(C#N)CCC1)C(CC)[Se]c1ccccc1 (stereo not drawn)", "readoutLabel": "TGI", "valueMeasured": "28.2 µM"}
{"molecule": "CCOC(=O)C(=O)Nc1c(C)cccc1CC", "readoutLabel": "TGI", "valueMeasured": "> 100 µM"}
{"molecule": "O=C1C=C(c2cc(Br)c(O)c(Br)c2)/C(=C/c2cc(Br)c(O)c(Br)c2)O1", "readoutLabel": "TGI", "valueMeasured": "> 75 µM"}
{"molecule": "Cn1c(=O)c2c(nc3n2CCC(=O)N3)n(C)c1=O", "readoutLabel": "TGI", "valueMeasured": "> 100 µM"}
{"molecule": "CN(C)c1ccc(/C=N/NC2=N/C(=C\\c3ccco3)C(=O)N2)cc1", "readoutLabel": "TGI", "valueMeasured": "> 100 µM"}
{"molecule": "CC1(C)OC2C(=O)OC(COCc3ccccc3)C2O1 (stereo not drawn)", "readoutLabel": "TGI", "valueMeasured": "> 100 µM"}
{"molecule": "CCOC(=O)/C(C1=CC(=O)C(=O)c2ccccc21)=C(/C)NCc1ccccc1", "readoutLabel": "TGI", "valueMeasured": "2.88 µM"}
{"molecule": "CC(NC(=O)c1ccc(OP(=O)(OCC2=CC(=O)c3ccccc3C2=O)N(C)CCCCCl)cc1)c1ccc(OCC2CCCCC2)c(C(N)=O)c1 (stereo not drawn)", "readoutLabel": "TGI", "valueMeasured": "28.6 µM"}
{"molecule": "OCC1OC(N2C=C(c3nc4ccccc4s3)C3C=CC=CC32)C(O)C1O (stereo not drawn)", "readoutLabel": "TGI", "valueMeasured": "19.5 µM"}
{"molecule": "C/C(=N/O)c1cccc(Nc2nc3ccccc3c3[nH]c4ccccc4c23)c1", "readoutLabel": "TGI", "valueMeasured": "6.96 µM"}
{"molecule": "O=C(O)c1nnsc1COCc1ccccc1", "readoutLabel": "TGI", "valueMeasured": "> 100 µM"}
{"molecule": "COc1ccc(CN=CN/C(C#N)=C(\\N)C#N)cc1OC", "readoutLabel": "TGI", "valueMeasured": "> 100 µM"}
{"molecule": "O=Nc1c2cccnc2n2nnc3ccc(Cl)cc3c12", "readoutLabel": "TGI", "valueMeasured": "6.11 µM"}
{"molecule": "COc1cccc2c(=O)c3c(sc12)c(NCCCN)nc1ccccc13", "readoutLabel": "TGI", "valueMeasured": "3.14 µM"}
{"molecule": "O=S1(=O)c2ccccc2N2CCCc3cc(Cl)cc1c32", "readoutLabel": "TGI", "valueMeasured": "> 100 µM"}
{"molecule": "O=C(c1ccco1)N(C(=S)N1CCN(c2ccccc2)CC1)c1ccccc1", "readoutLabel": "TGI", "valueMeasured": "> 100 µM"}
{"molecule": "CC(Nc1cc(Cl)cc(Cl)c1)c1ccncc1 (stereo not drawn)", "readoutLabel": "TGI", "valueMeasured": "51.3 µM"}
{"molecule": "Cc1c(C(=O)CC(=O)C(=O)NC2C3CC4CC(C3)CC2C4)[n+](=O)c2ccccc2n1[O-] (stereo not drawn)", "readoutLabel": "TGI", "valueMeasured": "> 100 µM"}
{"molecule": "O=C(O)c1[nH]c(C(=O)O)c(CC(F)(F)C(F)(F)C(F)(F)F)c1CC(F)(F)C(F)(F)C(F)(F)F", "readoutLabel": "TGI", "valueMeasured": "> 100 µM"}
{"molecule": "OC1CCC(C2C3CCCCC3C3CCCCC3C2C2CCC(O)CC2)CC1 (stereo not drawn)", "readoutLabel": "TGI", "valueMeasured": "> 100 µM"}
{"molecule": "Brc1ccc2c(c1)C1=C(CO2)Cc2ccccc2O1", "readoutLabel": "TGI", "valueMeasured": "43.7 µM"}
{"molecule": "CC(=O)C(=C(I)I)c1ccccc1", "readoutLabel": "TGI", "valueMeasured": "40.3 µM"}
{"molecule": "Cc1cc2ccccc2c[n+]1CC(=O)CC([O-])(C(F)(F)F)C(F)(F)F", "readoutLabel": "TGI", "valueMeasured": "> 100 µM"}
{"molecule": "CN(C)CCNc1cccc2sc3ccc(O)cc3c(=O)c12", "readoutLabel": "TGI", "valueMeasured": "6.28 µM"}
{"molecule": "C=C[C@H]1CN2CC[C@H]1C[C@@H]2[C@@H](O)c1ccnc2ccccc12", "readoutLabel": "TGI", "valueMeasured": "> 100 µM"}
{"molecule": "Nc1cc(CO)cc(Nc2c3ccccc3nc3occc23)c1", "readoutLabel": "TGI", "valueMeasured": "77.4 µM"}
{"molecule": "CC[C@@]1(OC(=O)CCC(=O)O)C(=O)OCc2c1cc1n(c2=O)Cc2cc3ccccc3nc2-1", "readoutLabel": "TGI", "valueMeasured": "0.394 µM"}
{"molecule": "C=C1CCCCCCCCCCC1S(=O)c1ccccc1 (stereo not drawn)", "readoutLabel": "TGI", "valueMeasured": "38.2 µM"}
{"molecule": "CCCN(CCCCC(NC(C)=O)C(=O)NCc1ccccc1)C(=O)NC (stereo not drawn)", "readoutLabel": "TGI", "valueMeasured": "> 100 µM"}
{"molecule": "Clc1ccc(OCc2nnc(CCCCCCCCc3nnc(COc4ccc(Cl)cc4Cl)o3)o2)c(Cl)c1", "readoutLabel": "TGI", "valueMeasured": "> 100 µM"}
{"molecule": "CCCCCCCCOCC1S(=O)(=O)OCCOS1(=O)=O", "readoutLabel": "TGI", "valueMeasured": "> 100 µM"}
{"molecule": "CC1=CC[C@@H]2C(C)(C)[C@@H](O)CC[C@@]2(C)[C@@H]1COc1ccc2ccc(=O)oc2c1", "readoutLabel": "TGI", "valueMeasured": "28 µM"}
{"molecule": "CC1CC[C@]2(C(=O)O)CCC3(C)C(=C2[C@H]1C)C=CC1[C@@]2(C)CC[C@H](O)C(C)(C)C2CC[C@]13C (stereo partly drawn)", "readoutLabel": "TGI", "valueMeasured": "> 100 µM"}
{"molecule": "Cc1ccc(-c2cc3nc(-c4ccccc4)nc(C(Cl)Cl)n3n2)cc1", "readoutLabel": "TGI", "valueMeasured": "2.37 µM"}
{"molecule": "Cc1ccc2[nH]c(=O)c(-c3cnc(=O)[nH]n3)c(O)c2c1", "readoutLabel": "TGI", "valueMeasured": "> 100 µM"}
{"molecule": "CN(C)CCCOC(=O)C(O)(Cc1ccccc1)C1CC1 (stereo not drawn)", "readoutLabel": "TGI", "valueMeasured": "> 100 µM"}
{"molecule": "COc1cc2[nH]c(-c3ccccc3)cc(=O)c2cc1OC", "readoutLabel": "TGI", "valueMeasured": "> 100 µM"}

----------
SK-MEL-2 melanoma: reported GI50 for various compounds.

{"compound": "ClCCn1cnc2c(SCc3ccccc3)ncnc21", "GI50": "2240 nM"}
{"compound": "COC(=O)c1ccc2c(c1)c1c(C)c3cnccc3c(C)c1n2C", "GI50": "107 nM"}
{"compound": "N#CC1C(N)=NNC1c1ccc(-c2ccc(-c3nc4ccccc4o3)cc2)o1 (stereo unspecified)", "GI50": "37500 nM"}
{"compound": "COc1ccc(-c2cn3ccnc3c(-c3ccc4ncn(C5CCCCC5)c4c3)n2)cc1", "GI50": "944 nM"}
{"compound": "CC1=CC[C@@H]2C(C)(C)[C@@H](O)CC[C@@]2(C)[C@@H]1COc1ccc2ccc(=O)oc2c1", "GI50": "5490 nM"}
{"compound": "Cc1ccc(S(=O)(=O)NCCN2c3nc4ccccc4cc3Sc3cc4ccccc4nc32)cc1", "GI50": "> 37400 nM"}
{"compound": "COc1cccc2c(=O)c3c(sc12)c(NCCCN)nc1ccccc13", "GI50": "2000 nM"}
{"compound": "CCC(=O)N1C/C(=C/c2ccc(OC)cc2)C(=O)/C(=C/c2ccc(OC)cc2)C1", "GI50": "2530 nM"}
{"compound": "O=C1NC(=O)C(c2ccccc2Cl)=C1Nc1cccc(O)c1", "GI50": "1990 nM"}
{"compound": "CCOC(=O)/C(C1=CC(=O)C(=O)c2ccccc21)=C(/C)NCc1ccccc1", "GI50": "5870 nM"}
{"compound": "CCN(CC)C(=S)SSC1CCCCC1", "GI50": "26700 nM"}
